- study.target: EGFR L858R kinase domain (Homo sapiens (Human), UniProt P00533, L858R)
- Sequence (P00533 669-1210 L858R): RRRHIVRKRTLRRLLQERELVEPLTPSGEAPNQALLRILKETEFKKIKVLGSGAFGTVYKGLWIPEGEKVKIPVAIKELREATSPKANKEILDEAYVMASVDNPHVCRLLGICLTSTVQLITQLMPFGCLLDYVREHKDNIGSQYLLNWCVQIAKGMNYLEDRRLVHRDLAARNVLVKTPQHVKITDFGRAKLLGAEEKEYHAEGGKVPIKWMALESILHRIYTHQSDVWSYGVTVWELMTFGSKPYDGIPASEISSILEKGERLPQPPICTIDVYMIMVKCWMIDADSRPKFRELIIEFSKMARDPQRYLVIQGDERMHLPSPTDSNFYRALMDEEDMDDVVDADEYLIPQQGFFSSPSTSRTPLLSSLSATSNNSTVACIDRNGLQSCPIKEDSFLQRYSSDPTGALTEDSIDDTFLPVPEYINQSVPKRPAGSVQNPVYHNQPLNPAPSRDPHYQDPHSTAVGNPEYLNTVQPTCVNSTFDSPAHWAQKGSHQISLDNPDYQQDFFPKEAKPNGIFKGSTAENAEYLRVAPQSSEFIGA
- assay.method.text: EGFR enzymatic assay, TR-FRET, EGFR L858R
endpoint: pIC50
Answers are plain numbers, as −log10 of the molar value.

Please look at the items below and tell me pIC50 for each one, in order.
1. CCN1CCN(Cc2ccc(C(=O)N[C@@H]3[C@H]4Oc5ccc(Oc6ccnc7c6CCC(=O)N7)cc5[C@@H]34)cc2OC)CC1
2. O=C1CCc2c(Oc3ccc4c(c3)[C@H]3[C@H](NC(=O)c5ccc(CN6CCN7CCC[C@@H]7C6)c(C(F)(F)F)c5)[C@H]3O4)ccnc2N1
3. CCCCCC(=O)N[C@@H]1[C@H]2Oc3ccc(Oc4ccnc5c4CCC(=O)N5)cc3[C@@H]12
4. CC(C)(N)c1cc(C(=O)N[C@@H]2[C@H]3Oc4ccc(Oc5ccnc6c5CCC(=O)N6)cc4[C@@H]23)cc(C(F)(F)F)c1
5. O=C1CCc2c(Oc3ccc4c(c3)[C@H]3[C@H](NC(=O)c5ccc(C(F)(F)F)cc5)[C@H]3O4)ccnc2N1
6. CN(C)[C@H]1CCCN(Cc2ccc(C(=O)N[C@@H]3[C@H]4Oc5ccc(Oc6ccnc7c6CCC(=O)N7)cc5[C@@H]34)cc2C(F)(F)F)C1
7. CCN1CCN(Cc2ccc(C(=O)N[C@@H]3[C@H]4Oc5ccc(Oc6ccnc(N)c6)cc5[C@@H]34)cc2C(F)(F)F)CC1
8. O=C1CCc2c(Oc3ccc4c(c3)[C@H]3[C@H](NC(=O)c5ccccc5F)[C@H]3O4)ccnc2N1

Solution:
[9.04, 9.80, 6.74, 9.82, 7.92, 9.33, 9.33, 7.10]

Please look at the items below and tell me pIC50 for each one, in order.
1. CN(C)Cc1cc(C(=O)N[C@@H]2[C@H]3Oc4ccc(Oc5ccnc6c5CCC(=O)N6)cc4[C@@H]23)cc(C(F)(F)F)c1
2. Cc1cc(C(=O)N[C@@H]2[C@H]3Oc4ccc(Oc5ccnc6c5CCC(=O)N6)cc4[C@@H]23)ccc1CN1CCN(C)CC1
3. CCN1CCN(Cc2ccc(C(=O)N[C@@H]3[C@H]4Oc5ccc(Oc6ccnc7c6CCC(=O)N7)cc5[C@@H]34)cc2OC(F)(F)F)CC1
4. CCN1CCN(Cc2ccc(C(=O)NC3C4Oc5c(C)cc(Oc6ccnc7c6CCC(=O)N7)cc5C34)cc2C(F)(F)F)CC1 (stereo not shown)

Solution:
7.89
9.51
9.10
9.46

Please look at the items below and tell me pIC50 for each one, in order.
1. Cc1cc(C(=O)N[C@@H]2[C@H]3Oc4ccc(Oc5ccnc6c5CCC(=O)N6)cc4[C@@H]23)ccc1CO
2. CN1CCN(c2ccc(C(=O)N[C@@H]3[C@H]4Oc5ccc(Oc6ccnc7c6CCC(=O)N7)cc5[C@@H]34)cc2C(F)(F)F)CC1
3. CN(C)C1CCN(c2ccc(C(=O)N[C@@H]3[C@H]4Oc5ccc(Oc6ccnc7c6CCC(=O)N7)cc5[C@@H]34)cc2C(F)(F)F)CC1
4. CN(C)Cc1ccc(C(=O)N[C@@H]2[C@H]3Oc4ccc(Oc5ccnc6c5CCC(=O)N6)cc4[C@@H]23)cc1C(F)(F)F
5. Cc1cc(Oc2ccnc3c2CCC(=O)N3)cc2c1OC1C(NC(=O)c3ccc(CN4CCN(C)CC4)c(C(F)(F)F)c3)C21 (stereo not shown)
6. CN1CCN(Cc2ccc(C(=O)N[C@@H]3[C@H]4Oc5ccc(Oc6ccnc7c6CCC(=O)N7)cc5[C@@H]34)cc2Br)CC1

Solution:
8.32
8.34
8.68
8.92
9.40
9.62

Please look at the items below and tell me pIC50 for each one, in order.
1. CNC(=O)c1cc(Oc2ccc3c(c2)[C@H]2[C@H](NC(=O)c4ccc(CN5CCN(C)CC5)c(C(F)(F)F)c4)[C@H]2O3)ccn1
2. C[C@H]1CN(Cc2ccc(C(=O)N[C@@H]3[C@H]4Oc5ccc(Oc6ccnc7c6CCC(=O)N7)cc5[C@@H]34)cc2C(F)(F)F)CCN1
3. O=C1CCc2c(Oc3ccc4c(c3)[C@H]3[C@H](NC(=O)c5ccc(CN6CCOCC6)c(C(F)(F)F)c5)[C@H]3O4)ccnc2N1
4. N#CC1(c2cccc(C(=O)N[C@@H]3[C@H]4Oc5ccc(Oc6ccnc7c6CCC(=O)N7)cc5[C@@H]34)c2)CC1
5. O=C1CCc2c(Oc3ccc4c(c3)[C@H]3[C@H](NC(=O)c5cc(C(F)(F)F)ccn5)[C@H]3O4)ccnc2N1
6. CN(C)[C@@H]1CCCN(c2ccc(C(=O)N[C@@H]3[C@H]4Oc5ccc(Oc6ccnc7c6CCC(=O)N7)cc5[C@@H]34)cc2C(F)(F)F)C1

Solution:
[8.39, 9.85, 7.80, 7.28, 8.27, 9.04]

* * *

Could you please report measured IC50 for the items listed next?
- study.target: wild type B-Raf (Homo sapiens (Human), UniProt P15056)
- Sequence (P15056 whole entry): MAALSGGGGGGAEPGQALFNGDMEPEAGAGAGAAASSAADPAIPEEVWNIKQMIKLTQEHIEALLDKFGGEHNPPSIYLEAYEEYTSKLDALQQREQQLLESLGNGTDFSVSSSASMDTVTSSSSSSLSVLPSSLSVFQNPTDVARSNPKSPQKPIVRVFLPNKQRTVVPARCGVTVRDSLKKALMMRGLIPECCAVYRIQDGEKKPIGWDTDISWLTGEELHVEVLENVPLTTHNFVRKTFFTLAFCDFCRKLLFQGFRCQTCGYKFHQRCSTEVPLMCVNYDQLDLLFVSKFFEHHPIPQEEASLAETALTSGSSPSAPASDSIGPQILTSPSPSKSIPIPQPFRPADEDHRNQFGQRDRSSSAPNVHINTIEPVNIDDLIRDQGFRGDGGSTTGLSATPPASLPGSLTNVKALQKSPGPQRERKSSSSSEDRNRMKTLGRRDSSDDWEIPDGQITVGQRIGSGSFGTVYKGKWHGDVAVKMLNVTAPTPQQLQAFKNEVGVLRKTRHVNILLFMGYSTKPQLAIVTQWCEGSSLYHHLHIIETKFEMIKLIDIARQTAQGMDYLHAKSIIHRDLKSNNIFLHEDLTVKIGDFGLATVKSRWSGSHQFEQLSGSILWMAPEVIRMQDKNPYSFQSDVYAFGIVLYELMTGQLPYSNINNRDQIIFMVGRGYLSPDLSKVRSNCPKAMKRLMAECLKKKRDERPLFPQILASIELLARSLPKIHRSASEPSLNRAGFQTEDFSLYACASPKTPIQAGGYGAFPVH
- assay.method.text: WT BRaf IC50 assay, TR-FRET
- Assay type: biochemical
- experimental.conditions: IC50 Braf-WT […] ATP, […] ATP

CCN1CCN(Cc2ccc(C(=O)N[C@@H]3[C@H]4Oc5ccc(Oc6ccnc7c6CCC(=O)N7)cc5[C@@H]34)cc2C(F)(F)F)CC1 | 27 nM
O=C1CCc2c(Oc3ccc4c(c3)[C@H]3[C@H](NC(=O)c5ccc(CN6CCNCC6)c(C(F)(F)F)c5)[C@H]3O4)ccnc2N1 | 120 nM
O=C1CCc2c(Oc3ccc4c(c3)[C@H]3[C@H](NC(=O)c5ccc(CN6CCOCC6)c(C(F)(F)F)c5)[C@H]3O4)ccnc2N1 | 130 nM
O=C1CCc2c(Oc3ccc4c(c3)[C@H]3[C@H](NC(=O)c5ccc(CN6CCCCC6)c(C(F)(F)F)c5)[C@H]3O4)ccnc2N1 | 380 nM

Please look at the items below and tell me IC50 for each one, in order.
1. CCN1CCN(Cc2ccc(C(=O)N[C@@H]3[C@H]4Oc5ccc(Oc6ccnc7c6CCC(=O)N7)cc5[C@@H]34)cc2F)CC1
2. O=C1CCc2c(Oc3ccc4c(c3)[C@H]3[C@H](NC(=O)c5cccc(C(F)(F)F)c5)[C@H]3O4)ccnc2N1

Solution:
1. 31 nM
2. 12 nM

* * *

- study.target: C-Raf (Y340D/Y341D) (Homo sapiens (Human), UniProt P04049, Y340D/Y341D)
- Sequence (P04049 whole entry Y340D/Y341D): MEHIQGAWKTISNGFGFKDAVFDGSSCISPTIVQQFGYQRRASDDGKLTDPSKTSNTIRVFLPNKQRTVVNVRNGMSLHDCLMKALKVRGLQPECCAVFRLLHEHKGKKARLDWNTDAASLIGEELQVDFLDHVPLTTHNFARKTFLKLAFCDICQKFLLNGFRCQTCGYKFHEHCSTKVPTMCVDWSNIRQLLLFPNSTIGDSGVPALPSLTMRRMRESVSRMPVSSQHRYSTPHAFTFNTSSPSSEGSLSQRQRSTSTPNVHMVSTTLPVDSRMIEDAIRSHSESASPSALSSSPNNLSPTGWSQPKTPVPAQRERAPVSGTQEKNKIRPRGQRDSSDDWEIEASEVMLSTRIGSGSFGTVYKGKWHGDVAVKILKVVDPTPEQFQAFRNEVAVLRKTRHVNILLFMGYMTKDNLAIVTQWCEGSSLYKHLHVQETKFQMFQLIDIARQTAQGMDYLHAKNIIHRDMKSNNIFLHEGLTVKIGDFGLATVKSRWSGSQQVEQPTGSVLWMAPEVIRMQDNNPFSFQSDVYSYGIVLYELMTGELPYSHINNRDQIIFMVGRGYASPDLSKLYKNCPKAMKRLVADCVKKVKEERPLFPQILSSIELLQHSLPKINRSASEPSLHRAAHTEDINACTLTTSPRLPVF
- assay.method.text: Raf IC50 assay, TR-FRET, C-Raf (Y340D/Y341D)
- experimental.conditions: 0.1 mM ATP
endpoint: pIC50
Numbers only, as −log10 of the molar value.

O=C1CCc2c(Oc3ccc4c(c3)[C@H]3[C@H](NC(=O)c5cccc(C(F)(F)F)c5)[C@H]3O4)ccnc2N1 | 9.48
N[C@@H]1[C@H]2Oc3ccc(Oc4ccnc5c4CCC(=O)N5)cc3[C@@H]12 [Intermediate I] | 6.56

Please look at the items below and tell me pIC50 for each one, in order.
1. O=C1CCc2c(Oc3ccc4c(c3)[C@H]3[C@H](NC(=O)c5ccc(CN6CCNCC6)c(C(F)(F)F)c5)[C@H]3O4)ccnc2N1
2. CN(C)Cc1ccc(C(=O)N[C@@H]2[C@H]3Oc4ccc(Oc5ccnc6c5CCC(=O)N6)cc4[C@@H]23)cc1C(F)(F)F
3. CN1CCC(Oc2ccc(C(=O)N[C@@H]3[C@H]4Oc5ccc(Oc6ccnc7c6CCC(=O)N7)cc5[C@@H]34)cc2C(F)(F)F)CC1
4. CN1CCN(c2ccc(C(=O)N[C@@H]3[C@H]4Oc5ccc(Oc6ccnc7c6CCC(=O)N7)cc5[C@@H]34)cc2C(F)(F)F)CC1
5. O=C1CCc2c(Oc3ccc4c(c3)[C@H]3[C@H](NC(=O)c5ccc(CN6CCCCC6)c(C(F)(F)F)c5)[C@H]3O4)ccnc2N1

Solution:
1: 8.52; 2: 8.85; 3: 8.79; 4: 8.59; 5: 7.74

Please look at the items below and tell me pIC50 for each one, in order.
1. O=C1CCc2c(Oc3ccc4c(c3)[C@H]3[C@H](NC(=O)c5ccc(CN6CCN7CCC[C@@H]7C6)c(C(F)(F)F)c5)[C@H]3O4)ccnc2N1
2. CN1CCN(Cc2ccc(C(=O)N[C@@H]3[C@H]4Oc5ccc(Oc6ccnc7c6CCC(=O)N7)cc5[C@@H]34)cc2C(F)(F)F)CC1
3. CCN1CCN(Cc2ccc(C(=O)N[C@@H]3[C@H]4Oc5ccc(Oc6ccnc7c6COC(=O)N7)cc5[C@@H]34)cc2C(F)(F)F)CC1
4. CN(C)[C@@H]1CCCN(Cc2ccc(C(=O)N[C@@H]3[C@H]4Oc5ccc(Oc6ccnc7c6CCC(=O)N7)cc5[C@@H]34)cc2C(F)(F)F)C1
5. CCN1CCN(Cc2ccc(C(=O)N[C@H]3[C@@H]4Oc5ccc(Oc6ccnc7c6CCC(=O)N7)cc5[C@H]34)cc2C(F)(F)F)CC1
6. CCN1CCN(Cc2ccc(C(=O)N[C@@H]3[C@H]4Oc5ccc(Oc6ccnc7c6CCC(=O)N7)cc5[C@@H]34)cc2F)CC1
7. C[C@H]1CN(Cc2ccc(C(=O)N[C@@H]3[C@H]4Oc5ccc(Oc6ccnc7c6CCC(=O)N7)cc5[C@@H]34)cc2C(F)(F)F)CCN1
8. CCN1CCN(Cc2cc(C(=O)N[C@@H]3[C@H]4Oc5ccc(Oc6ccnc7c6CCC(=O)N7)cc5[C@@H]34)cc(C(F)(F)F)c2)CC1

Solution:
[8.89, 8.72, 8.64, 9.11, 9.33, 8.82, 8.96, 8.68]
